Values from PubChem BioAssay AID330

# Tested on: P388 leukemia ip, CD2F1 mice, survival T/C
# Procedure details: NCI In Vivo Anticancer Drug Screen. Data for tumor model P388 Leukemia (intraperitoneal) in CD2F1 (CDF1) mice
# Protocol conditions: endpoint: median survival time; dose: 100.0 mg/kg/injection; schedule: Q01DX005 (ip); vehicle: Klucel (hydroxypropylcellulose) (HPC); higher = longer survival
Toxic doses and inconclusive results are not listed.
Observed property: T/C

The reported P388 leukemia ip, CD2F1 mice, survival T/C T/C of Cc1nc2[nH]ncc2c(=O)n1-c1ccccc1Cl is 101 % of control

The reported P388 leukemia ip, CD2F1 mice, survival T/C T/C of CC1(C)Cc2[nH]c3ccccc3c(=O)c2-c2nc3ccccc3c(=O)n21 is 98 % of control

The reported P388 leukemia ip, CD2F1 mice, survival T/C T/C of S=C(NCCl)NCc1ccccc1 is 100 % of control

The reported P388 leukemia ip, CD2F1 mice, survival T/C T/C of COC(=S)SSC(=S)NCC(C)NC(=S)SSC(=S)OC (stereo unspecified) is 103 % of control

The reported P388 leukemia ip, CD2F1 mice, survival T/C T/C of c1c[nH]c2c3ccncc3c3ncnc3c2c1 is 88 % of control

The reported P388 leukemia ip, CD2F1 mice, survival T/C T/C of CCCCCCCCn1c(C)nc2c(cnn2C)c1=O is 96 % of control

The reported P388 leukemia ip, CD2F1 mice, survival T/C T/C of O=C(/C=C/c1ccccc1)c1ccccc(=O)c1O is 113 % of control

The reported P388 leukemia ip, CD2F1 mice, survival T/C T/C of Cc1ccsc1C(=O)c1ccccc1[N+](=O)[O-] is 94 % of control

New cases:
The reported P388 leukemia ip, CD2F1 mice, survival T/C T/C of NP1(N)=NP(N)(N)=NP(N)(N)=NP(N)(N)=N1 is 96 % of control

The reported P388 leukemia ip, CD2F1 mice, survival T/C T/C of COc1cc(N)c(S(=O)(=O)O)cc1N=N/C(=N/Nc1cc(S(=O)(=O)O)c(N)cc1OC)C(=O)Nc1ccccc1 is 104 % of control

The reported P388 leukemia ip, CD2F1 mice, survival T/C T/C of CCC(=O)N/C(N)=N\C(N)=S is 96 % of control

The reported P388 leukemia ip, CD2F1 mice, survival T/C T/C of Fc1ccc(Nc2c3ccccc3nc3c2cnn3-c2ccccc2)cc1 is 87 % of control

The reported P388 leukemia ip, CD2F1 mice, survival T/C T/C of CNC(=O)CCCCCNC(C)=O is 95 % of control

The reported P388 leukemia ip, CD2F1 mice, survival T/C T/C of O=C(O)CCC(=O)c1ccc2ccc3cccc4ccc1c2c34 is 103 % of control

The reported P388 leukemia ip, CD2F1 mice, survival T/C T/C of O=C(O)C(CS)NC1CC(=O)N(Cc2ccccc2)C1=O (stereo unspecified) is 103 % of control

The reported P388 leukemia ip, CD2F1 mice, survival T/C T/C of O=c1[nH]nc(SCc2ccccc2Cl)c(=O)[nH]1 is 86 % of control

The reported P388 leukemia ip, CD2F1 mice, survival T/C T/C of CN(C)C1=Nc2ccccc2NC(=O)C1 is 105 % of control

The reported P388 leukemia ip, CD2F1 mice, survival T/C T/C of O=C(N/N=C\c1c(O)ccc2ccccc12)C1CC1 is 97 % of control

The reported P388 leukemia ip, CD2F1 mice, survival T/C T/C of CS(=O)(=O)C(CCC(=O)C(c1ccccc1)c1ccccc1)C(=O)c1ccccc1 (stereo unspecified) is 109 % of control

The reported P388 leukemia ip, CD2F1 mice, survival T/C T/C of O=c1c2c(oc3cc(OCC4CO4)ccc13)CCC2 (stereo unspecified) is 88 % of control

The reported P388 leukemia ip, CD2F1 mice, survival T/C T/C of COc1cc2c(cc1OC)C(Cc1cccs1)=NCC2 is 94 % of control

The reported P388 leukemia ip, CD2F1 mice, survival T/C T/C of COC(=O)c1c(C)oc2ccccc2c1=O is 103 % of control

The reported P388 leukemia ip, CD2F1 mice, survival T/C T/C of Cc1nn(C)cc1P(=O)(c1ccccc1)c1ccccc1 is 96 % of control

The reported P388 leukemia ip, CD2F1 mice, survival T/C T/C of COc1ccccc1-n1c(Cc2cccc3ccccc23)n[nH]c1=S is 100 % of control

The reported P388 leukemia ip, CD2F1 mice, survival T/C T/C of O=c1oc2c(-c3c(O)c(=O)oc4ccccc34)cc(O)cc2s1 is 103 % of control

The reported P388 leukemia ip, CD2F1 mice, survival T/C T/C of CCOC(=O)\C(C#N)=C/C=C/C(C)=C/Nc1ccc([N+](=O)[O-])cc1[N+](=O)[O-] is 91 % of control
